Experiment: Cell viability assay (CellTiter-Glo) on MOLM-13
Format: cell-based
Settings: human, MOLM-13 cells, 2.5 µM, average of two biological replicates
viability at 72 h, […] listing for selected molecules.
Write your answer as a measured quantity: the number, then the unit.

Below: 3 molecules and their reported viability at 72 h, […].
CC1(C)CCN(Cc2cc(F)c(N3CC(=O)NC4(CCN(c5cc(NCC6CCN(C(=O)CNc7cccc8c7C(=O)N(C7CCC(=O)NC7=O)C8=O)CC6)ncn5)CC4)C3)cc2F)CC1 (stereo not shown) [Compound 21] | 110%
CC1(C)CCN(Cc2cc(F)c(N3CC(=O)NC4(CCN(c5cc(NCCN6CCN(C(=O)CCCCCCCNc7cccc8c7C(=O)N(C7CCC(=O)NC7=O)C8=O)CC6)ncn5)CC4)C3)cc2F)CC1 (stereo not shown) [Compound 31] | 88%
CC1(C)CCN(Cc2cc(F)c(N3CC(=O)NC4(CCN(c5cc(NCCN6CCN(C(=O)CCCNc7cccc8c7C(=O)N(C7CCC(=O)NC7=O)C8=O)CC6)ncn5)CC4)C3)cc2F)CC1 (stereo not shown) [Compound 29] | 93.4%

viability at 72 h, […] lookup needed for CC1(C)CCN(Cc2cc(F)c(N3CC(=O)NC4(CCN(c5cc(NCc6ccc(N7CCN(c8cccc9c8C(=O)N(C8CCC(=O)NC8=O)C9=O)CC7)cc6)ncn5)CC4)C3)cc2F)CC1 (stereo not shown) [Compound 34] , thanks.
96.3%

---

Experiment: Cell viability assay (CellTiter-Glo) on MOLM-13
Assay type: cell-based
Settings: human, MOLM-13 cells, 0.6 µM, average of two biological replicates
propertyLabel: viability at 72 h, 0.6 µM (%)
State the answer as a number, implicitly in %.

Below: 4 molecules and their reported viability at 72 h, 0.6 µM.
CC1(C)CCN(Cc2cc(F)c(N3CC(=O)NC4(CCN(c5cc(NCc6cccc(CNC(=O)CCCCCCCCCCNc7cccc8c7CN(C7CCC(=O)NC7=O)C8=O)c6)ncn5)CC4)C3)cc2F)CC1 (centres unmarked) [Compound 17] | 106
CC1(C)CCN(Cc2cc(F)c(N3CC(=O)NC4(CCN(c5cc(NCCN6CCN(C(=O)CCCCCCCNc7cccc8c7C(=O)N(C7CCC(=O)NC7=O)C8=O)CC6)ncn5)CC4)C3)cc2F)CC1 (centres unmarked) [Compound 31] | 95.4
CC1(C)CCN(Cc2cc(F)c(N3CC(=O)NC4(CCN(c5cc(NCc6cn(CCCCCCCCCCC(=O)Nc7cccc8c7CN(C7CCC(=O)NC7=O)C8=O)nn6)ncn5)CC4)C3)cc2F)CC1 (centres unmarked) [Compound 27] | 95.2
CC1(C)CCN(Cc2cc(F)c(N3CC(=O)NC4(CCN(c5cc(NCC6CCN(C(=O)CNc7cccc8c7C(=O)N(C7CCC(=O)NC7=O)C8=O)CC6)ncn5)CC4)C3)cc2F)CC1 (centres unmarked) [Compound 21] | 104

Alright, here's another molecule for you.
viability at 72 h, 0.6 µM lookup needed for CC1(C)CCN(Cc2cc(F)c(N3CC(=O)NC4(CCN(c5cc(NCC6CCN(C(=O)CCCNc7ccc8c(c7)C(=O)N(C7CCC(=O)NC7=O)C8=O)CC6)ncn5)CC4)C3)cc2F)CC1 (centres unmarked) [Compound 23] , thanks.
95.3

---

TCFA amplitude (mean ± SEM) listing for selected compounds.
Molecular target: ternary complex CRBN/PROTAC/METTL3–14 (Homo sapiens, UniProt Q86U44+Q96SW2)
Construct: methyltransferase domains (MTD) of METTL3 (residues 354–580); His6 (N, cleaved yes); made in house; host or cells: METTL3-MTD/METTL14-MTD: baculovirus/Sf9; CRBN-TBD: E. coli Rosetta (DE3), co-expressed with BirA
Sequence (Q86U44 354-580): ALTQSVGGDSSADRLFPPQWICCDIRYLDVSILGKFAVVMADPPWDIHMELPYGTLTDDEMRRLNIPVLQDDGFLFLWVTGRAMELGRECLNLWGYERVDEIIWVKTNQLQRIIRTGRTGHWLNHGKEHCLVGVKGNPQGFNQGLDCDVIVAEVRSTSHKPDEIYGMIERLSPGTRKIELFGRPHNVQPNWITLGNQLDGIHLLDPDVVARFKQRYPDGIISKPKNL
Sequence (Q9HCE5 107-395 partner limits assumed): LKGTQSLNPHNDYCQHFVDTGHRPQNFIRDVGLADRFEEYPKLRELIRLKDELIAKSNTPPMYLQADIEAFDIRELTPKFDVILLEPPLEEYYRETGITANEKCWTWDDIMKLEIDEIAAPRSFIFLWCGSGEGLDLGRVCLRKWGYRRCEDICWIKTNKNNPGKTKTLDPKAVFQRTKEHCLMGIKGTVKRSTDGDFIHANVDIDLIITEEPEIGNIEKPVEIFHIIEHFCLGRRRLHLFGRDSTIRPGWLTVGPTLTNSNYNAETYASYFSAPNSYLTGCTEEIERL
Sequence (Q96SW2 318-442): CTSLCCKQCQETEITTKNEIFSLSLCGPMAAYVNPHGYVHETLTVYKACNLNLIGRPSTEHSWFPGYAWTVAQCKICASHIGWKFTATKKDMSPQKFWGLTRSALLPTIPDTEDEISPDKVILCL
Test: FRET-based ternary complex formation assay (TCFA)
Assay type: binding
Conditions: Hook curve amplitude, fraction of the maximum of compound 16
Please reply with the value in numeric form only.

CC1(C)CCN(Cc2cc(F)c(N3CC(=O)NC4(CCN(c5cc(NCCN6CCN(C(=O)CCCCCCCNc7cccc8c7C(=O)N(C7CCC(=O)NC7=O)C8=O)CC6)ncn5)CC4)C3)cc2F)CC1 (stereo not drawn) [Compound 31] | 0.9
CC1(C)CCN(Cc2cc(F)c(N3CC(=O)NC4(CCN(c5cc(NCCN6CCN(C(=O)CCCCCNc7cccc8c7C(=O)N(C7CCC(=O)NC7=O)C8=O)CC6)ncn5)CC4)C3)cc2F)CC1 (stereo not drawn) [Compound 30] | 1.0

Alright, here's another compound for you.
TCFA amplitude (mean ± SEM) lookup needed for CC1(C)CCN(Cc2cc(F)c(N3CC(=O)NC4(CCN(c5cc(NCCCNC(=O)CCCCCCCCn6cc(CNc7cccc8c7C(=O)N(C7CCC(=O)NC7=O)C8=O)nn6)ncn5)CC4)C3)cc2F)CC1 (stereo not drawn) [Compound 12] , thanks.
0.7
